Biological target: human CXCR4 (human, UniProt P61073 1-352)
Sequence (P61073 whole entry): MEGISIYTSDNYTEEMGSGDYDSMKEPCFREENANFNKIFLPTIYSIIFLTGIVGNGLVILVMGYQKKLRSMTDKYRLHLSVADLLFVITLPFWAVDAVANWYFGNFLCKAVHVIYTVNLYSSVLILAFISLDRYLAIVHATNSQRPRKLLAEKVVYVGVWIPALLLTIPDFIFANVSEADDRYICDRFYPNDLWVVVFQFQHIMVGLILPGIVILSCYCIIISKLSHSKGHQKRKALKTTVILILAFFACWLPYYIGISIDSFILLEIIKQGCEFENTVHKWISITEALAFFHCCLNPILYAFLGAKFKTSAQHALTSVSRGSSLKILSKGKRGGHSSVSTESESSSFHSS
Test: cell-based or functional assay
Endpoint: Chemotaxis IC50 (M) -HSA
Report only the number, with the unit M understood.

Q) Report Chemotaxis IC50 (M) -HSA for 4CXCR010G10 (VHH, Alexa-647 label in the competition FACS of D-2, also called P4CXCR10G10; not shown: C-terminal c-myc tag and His6 tag) VHH: EVQLVESGGGLVQAGGSLRLSCAASGRTFNSYAMAWFRQAPGKERENVAAIRWSGGRATKYADSVRGRFTISKDNAKNTVYLQMSSLKPEDTAVYYCATQTYYRSGLASTRDFDSWGQGTQVTVSS
A) 4.11e-09

Q) # return recorded Chemotaxis IC50 (M) -HSA for entry 4CXCR010E12 (VHH, also called P4CXCR10E12; not shown: C-terminal c-myc tag and His6 tag) VHH: EVQLVESGGGLVQAGGSLRLSCAVSGRTFTSYDMAWFRQAPGKERESVAAIRWTGSSTYYADSVKGRFTISRDNAKSTVYLQMNSLKPEDTAVYYCAARDTGRYRSRTYDYWGQGTQVTVSS
A) 2.78e-09

Q) Fill in Chemotaxis IC50 (M) -HSA for record 4CXCR010E09 (VHH, Monovalent Nanobody from E. coli; also called 10E9; P4CXCR10E09; not shown: C-terminal c-myc tag and His6 tag) VHH: EVQLVESGGGLVQTGGSLRLSCAASGRTFSSYAMGWFRRAPGKEREFVATISWRGDRKYYSESVKDRFTIARGRSNKNAVYLQMNSLKPEDTAVYYCAKDRAPYGSGSPDVKQYEHWGQGTQVTVSS
A) 3.29e-09

Q) Write down Chemotaxis IC50 (M) -HSA measured for item 4CXCR015A01 (VHH, not shown: small tags and cut ends, also called 15A1; P4CXCR15A01) VHH: EVQLVESGGGLVQAGGSLRLSCAASGRTFSRAAMGWFRQAPGKEREFVGCALSSAGSALTADSVKGRFTISRDNAKNMVYLQMNNLKPEDTAVYSCVAGGYCTRAGVYPYWGQGTQVTVSS
A) 1.7e-09

Q) Supply Chemotaxis IC50 (M) -HSA value. Item: 4CXCR281E10 (VHH, Family member of 238D4 (family 17); also called P4CXCR281E10; not shown: C-terminal c-myc tag and His6 tag) VHH: EVQLVESGGGLVQAGGSLRLSCKASGGTFNNYAMGWFRRAPGKEREFVAAITRSGVRSGVSAIYGDSVKDRFTISRDNVKNTLYLQMNTLKPEDTAVYTCAASAIGSGALRRFEYDYSGQGTQVTVSS
A) 2.08e-09

Provenance of the data: patent WO2011083140A1
